Source: the supplement of paper PMC11246515

# METHOD SUMMARY: total protein half-life in vivo (active degradation + dilution); higher = more stable protein
# CONDITION: wild type E. coli NCM3722; growth: C-lim chemostat; doubling time 3 h
TEST READOUT: total protein half-life in vivo (h)
Dear colleague, please return just the value in h, with no unit written.

Sample `MEQRHITGKSHWYHETQSSTTEYDVLPLVPEAAKVSDPFLLDVILEKETLAPFLSWLDPARVLAVDLFPDQLTVTRSQTFTAYERLSTALTVAQVCGVQRLCNYYSARLTPLPGPDSTRESNHRLAQITQYARQLASSPSIIDNRSRQHLNDVGLTAWDCVIISQIIGFIGFQARTIATFQAYLGHPVRWLPGLEIQNYADASLFADESLRWRSSYEVEKLPEEHTKSSTAELCQLAEILSLHPISLSLLEKLLNSTRGNTQPDNQLAALLCARINGSPACFATCMDSSNEYKKISTLMRKGENEINQWADRHSVERATVQAIQWLTRAPDRFSAAQFSPLLEHEKSSTQIINLLVWSGLCGWINRLKIALGETY` ; total protein half-life in vivo observed: 1.25

====

# METHOD SUMMARY: total protein half-life in vivo (active degradation + dilution); higher = more stable protein
# CONDITION: wild type E. coli NCM3722; growth: P-lim chemostat; doubling time 6 h
# key: entry, value: total protein half-life in vivo
Dear colleague, please return just the value in h, with no unit written.

Sample `MVKTQRVVITPGEPAGIGPDLVVQLAQREWPVELVVCADATLLTNRAAMLGLPLTLRPYSPNSPAQPQTAGTLTLLPVALRAPVTAGQLAVENGHYVVETLARACDGCLNGEFAALITGPVHKGVINDAGIPFTGHTEFFEERSQAKKVVMMLATEELRVALATTHLPLRDIADAITPALLHEVIAILHHDLRTKFGIAEPRILVCGLNPHAGEGGHMGTEEIDTIIPVLNELRAQGMKLNGPLPADTLFQPKYLDNADAVLAMYHDQGLPVLKYQGFGRGVNITLGLPFIRTSVDHGTALELAGRGKADVGSFITALNLAIKMIVNTQ` ; total protein half-life in vivo observed: 4.67

Sample MKKLVLSLSLVLAFSSATAAFAAIPQNIRIGTDPTYAPFESKNSQGELVGFDIDLAKELCKRINTQCTFVENPLDALIPSLKAKKIDAIMSSLSITEKRQQEIAFTDKLYAADSRLVVAKNSDIQPTVESLKGKRVGVLQGTTQETFGNEHWAPKGIEIVSYQGQDNIYSDLTAGRIDAAFQDEVAASEGFLKQPVGKDYKFGGPSVKDEKLFGVGTGMGLRKEDNELREALNKAFAEMRADGTYEKLAKKYFDFDVYGG [P0AEU0] ; total protein half-life in vivo observed: 6.2

Sample `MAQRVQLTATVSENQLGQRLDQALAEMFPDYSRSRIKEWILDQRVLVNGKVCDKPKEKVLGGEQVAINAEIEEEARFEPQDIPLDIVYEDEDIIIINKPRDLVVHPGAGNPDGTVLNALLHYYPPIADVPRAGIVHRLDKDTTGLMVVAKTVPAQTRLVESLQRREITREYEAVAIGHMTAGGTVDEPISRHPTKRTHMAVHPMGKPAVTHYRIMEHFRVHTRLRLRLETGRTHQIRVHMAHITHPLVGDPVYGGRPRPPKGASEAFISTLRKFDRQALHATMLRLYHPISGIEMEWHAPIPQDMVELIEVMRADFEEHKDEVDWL` ; total protein half-life in vivo observed: 5.72

Sample `MLDNVLRIATRQSPLALWQAHYVKDKLMASHPGLVVELVPMVTRGDVILDTPLAKVGGKGLFVKELEVALLENRADIAVHSMKDVPVEFPQGLGLVTICEREDPRDAFVSNNYDSLDALPAGSIVGTSSLRRQCQLAERRPDLIIRSLRGNVGTRLSKLDNGEYDAIILAVAGLKRLGLESRIRAALPPEISLPAVGQGAVGIECRLDDSRTRELLAALNHHETALRVTAERAMNTRLEGGCQVPIGSYAELIDGEIWLRALVGAPDGSQIIRGERRGAPQDAEQMGISLAEELLNNGAREILAEVYNGDAPA` ; total protein half-life in vivo observed: 5.48

Sample `MPSIRLADLAQQLDAELHGDGDIVITGVASMQSAQTGHITFMVNPKYREHLGLCQASAVVMTQDDLPFAKSAALVVKNPYLTYARMAQILDTTPQPAQNIAPSAVIDATAKLGNNVSIGANAVIESGVELGDNVIIGAGCFVGKNSKIGAGSRLWANVTIYHEIQIGQNCLIQSGTVVGADGFGYANDRGNWVKIPQIGRVIIGDRVEIGACTTIDRGALDDTIIGNGVIIDNQCQIAHNVVIGDNTAVAGGVIMAGSLKIGRYCMIGGASVINGHMEICDKVTVTGMGMVMRPITEPGVYSSGIPLQPNKVWRKTAALVMNIDDMSKRLKSLERKVNQQD` ; total protein half-life in vivo observed: 5.9

Sample `MYRIVLGKVSTLSAAPLPPGLREQAPQGPRRERWLAGRALLSHTLSPLPEIIYGEQGKPAFAPEMPLWFNLSHSGDDIALLLSDEGEVGCDIEVIRPRANWRWLANAVFSLGEHAEMDAVHPDQQLEMFWRIWTRKEAIVKQRGGSAWQIVSVDSTYHSSLSVSHCQLENLSLAICTPTPFTLTADSVQWIDSVN` ; total protein half-life in vivo observed: 5.86

Sample `MHADTATRQHWMSVLAHSQPAELAARLNALNITADYEVIRAAETGLVQIQARMGGTGERFFAGDATLTRAAVRLTDGTLGYSWVQGRDKQHAERCALIDALMQQSRHFQNLSETLIAPLDADRMARIAARQAEVNASRVDFFTMVRGDNA` ; total protein half-life in vivo observed: 1.11

====

# METHOD SUMMARY: total protein half-life in vivo (active degradation + dilution); higher = more stable protein
# CONDITION: E. coli NCM3722 delta-smpB; growth: N-lim chemostat; doubling time 6 h
Kind request: treat 5 h as inclusive, so total protein half-life in vivo at 5 h or higher is 1 (yes), anything lower is 0 (no).

{"columns": ["SEQUENCE INPUT", "GROUP"],
 "data": [
  ["MKKTAIAIAVALAGFATVAQAAPKDNTWYTGAKLGWSQYHDTGFINNNGPTHENQLGAGAFGGYQVNPYVGFEMGYDWLGRMPYKGSVENGAYKAQGVQLTAKLGYPITDDLDIYTRLGGMVWRADTKSNVYGKNHDTGVSPVFAGGVEYAITPEIATRLEYQWTNNIGDAHTIGTRPDNGMLSLGVSYRFGQGEAAPVVAPAPAPAPEVQTKHFTLKSDVLFNFNKATLKPEGQAALDQLYSQLSNLDPKDGSVVVLGYTDRIGSDAYNQGLSERRAQSVVDYLISKGIPADKISARGMGESNPVTGNTCDNVKQRAALIDCLAPDRRVEIEVKGIKDVVTQPQA [P0A910]", "1 (yes)"]
]}

**Query** Is it the case that MSEFDAQRVAERIDIVLDILVAGDYHSAIHNLEILKAELLRQVAESTPDIPKAPWEI [A5A614] has total protein half-life in vivo reaching or exceeding 5 h?
**Result** 0 (no)

**Query** Is it the case that `MQIIFGEKCVSLLRLFFAAVLMLWCAQTAAYSGQCHTTQGNPYIGVNFGVKTLEEEANTAGVVKDKFYQWNESNDYYVSCDCDKDNVRSGRWAFAADSPLVYLGDNWYKINDYLAAKVLLQVKGSSPTAVPFENVGTGGDTRWHICDPGGQRLGGQGASGNSGSFSLKILQPFVGSVVIPPMALARLYECYNIPAGDSCTTTGTPVLVYYLSGTINSLGSCSVNAGETIEVDLGDVFAANFRVVGHKPLGARTAELAIPVRCNTGNAGLVNVNLSLTATTDPSYPQAIKTSRPGVGVVVTDSQNNIISPAGGTLPLSIPDDADSIARMNVYPVSTTGVPPETGRFEATATVRINFD` has total protein half-life in vivo reaching or exceeding 5 h?
**Result** 1 (yes)

**Query** Is it the case that MNTISSLETTDLPAAYHIEQRAHAFPWSEKTFASNQGERYLNFQLTQNGKMAAFAITQVVLDEATLFNIAVDPDYQRQGLGRALLEHLIDELEKRGVATLWLEVRASNAAAIALYESLGFNEATIRRNYYPTTDGREDAIIMALPISM [P0A944] has total protein half-life in vivo reaching or exceeding 5 h?
**Result** 0 (no)

**Query** Is it the case that `MFSALRHRTAALALGVCFILPVHASSPKPGDFANTQARHIATFFPGRMTGTPAEMLSADYIRQQFQQMGYRSDIRTFNSRYIYTARDNRKSWHNVTGSTVIAAHEGKAPQQIIIMAHLDTYAPLSDADADANLGGLTLQGMDDNAAGLGVMLELAERLKNTPTEYGIRFVATSGEEEGKLGAENLLKRMSDTEKKNTLLVINLDNLIVGDKLYFNSGVKTPEAVRKLTRDRALAIARSHGIAATTNPGLNKNYPKGTGCCNDAEIFDKAGIAVLSVEATNWNLGNKDGYQQRAKTPAFPAGNSWHDVRLDNHQHIDKALPGRIERRCRDVMRIMLPLVKELAKAS` has total protein half-life in vivo reaching or exceeding 5 h?
**Result** 0 (no)

**Query** Is it the case that MSTIEERVKKIIGEQLGVKQEEVTNNASFVEDLGADSLDTVELVMALEEEFDTEIPDEEAEKITTVQAAIDYINGHQA [P0A6A8] has total protein half-life in vivo reaching or exceeding 5 h?
**Result** 0 (no)
